Molecular target: human P-glycoprotein (Pgp or MDR 1) expressing membrane (Homo sapiens)
Construct: purchased Daiichi Pure Chemicals Co. No. 453228; host or cells: Sf9 insect cell membrane
Sequence (P08183 whole entry): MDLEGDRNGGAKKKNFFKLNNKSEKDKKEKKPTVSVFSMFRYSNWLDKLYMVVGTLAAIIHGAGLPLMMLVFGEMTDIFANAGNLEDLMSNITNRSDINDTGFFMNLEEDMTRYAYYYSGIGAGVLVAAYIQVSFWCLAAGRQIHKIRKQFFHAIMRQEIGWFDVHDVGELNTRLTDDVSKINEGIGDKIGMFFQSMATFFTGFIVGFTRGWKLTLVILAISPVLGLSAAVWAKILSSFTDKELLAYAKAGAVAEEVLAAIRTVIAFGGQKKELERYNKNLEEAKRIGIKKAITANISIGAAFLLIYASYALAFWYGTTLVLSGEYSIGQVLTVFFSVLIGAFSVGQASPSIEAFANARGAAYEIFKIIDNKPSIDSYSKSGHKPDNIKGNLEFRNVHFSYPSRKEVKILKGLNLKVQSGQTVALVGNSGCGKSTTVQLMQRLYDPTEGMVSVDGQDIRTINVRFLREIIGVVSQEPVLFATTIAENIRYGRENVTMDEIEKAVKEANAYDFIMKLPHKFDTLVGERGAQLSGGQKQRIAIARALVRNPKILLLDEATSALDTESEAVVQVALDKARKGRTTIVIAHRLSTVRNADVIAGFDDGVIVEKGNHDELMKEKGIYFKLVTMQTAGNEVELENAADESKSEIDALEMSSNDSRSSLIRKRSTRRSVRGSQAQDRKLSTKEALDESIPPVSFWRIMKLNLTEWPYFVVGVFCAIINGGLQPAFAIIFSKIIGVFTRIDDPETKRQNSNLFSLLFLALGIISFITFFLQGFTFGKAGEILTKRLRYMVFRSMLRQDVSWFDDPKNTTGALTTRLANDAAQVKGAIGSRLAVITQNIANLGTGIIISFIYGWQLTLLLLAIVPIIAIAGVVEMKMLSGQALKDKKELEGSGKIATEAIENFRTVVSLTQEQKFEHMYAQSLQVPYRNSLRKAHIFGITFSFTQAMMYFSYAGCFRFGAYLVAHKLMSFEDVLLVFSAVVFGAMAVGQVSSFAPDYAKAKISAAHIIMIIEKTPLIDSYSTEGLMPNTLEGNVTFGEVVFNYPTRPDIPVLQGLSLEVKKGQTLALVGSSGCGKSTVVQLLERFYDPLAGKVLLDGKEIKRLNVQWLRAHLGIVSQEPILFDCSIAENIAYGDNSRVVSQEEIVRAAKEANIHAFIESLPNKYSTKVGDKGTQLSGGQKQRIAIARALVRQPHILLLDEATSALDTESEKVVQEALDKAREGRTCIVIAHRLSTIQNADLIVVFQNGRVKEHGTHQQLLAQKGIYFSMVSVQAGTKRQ
Assay: [3H] ADP binding amount by vanadate method, suction cleaning on 96-well glass filter, P-glycoprotein-expressing membrane
Assay type: biochemical
Settings: substrate 0.05 mM; reaction time 5 minutes; 37° C.; background of control membrane subtracted; FIG. 4
Readout kind: [3H] ADP binding activity compared to P-glycoprotein-expressing membrane without substrate

compound_smiles=COc1cccc2c1C(=O)c1c(O)c3c(c(O)c1C2=O)C[C@@](O)(C(=O)CO)C[C@@H]3O[C@H]1C[C@H](N)[C@H](O)[C@H](C)O1 result="significant increase"
compound_smiles=CC[C@]1(O)C[C@H]2CN(CCc3c([nH]c4ccccc34)[C@@](C(=O)OC)(c3cc4c(cc3OC)N(C=O)[C@H]3[C@@](O)(C(=O)OC)[C@H](OC(C)=O)[C@]5(CC)C=CCN6CC[C@]43[C@@H]65)C2)C1 result="significant increase"
compound_smiles=COc1cccc2c1C(=O)c1c(O)c3c(c(O)c1C2=O)C[C@@](O)(C(C)=O)C[C@@H]3O[C@H]1C[C@H](N)[C@H](O)[C@H](C)O1 result="significant increase"
